// data source = paper PMC5500810

Attribute: pKd
Molecular target: human EphA4-Fc (R&D Systems) (human, UniProt P54764 20-547)
Sequence (P54764 20-547): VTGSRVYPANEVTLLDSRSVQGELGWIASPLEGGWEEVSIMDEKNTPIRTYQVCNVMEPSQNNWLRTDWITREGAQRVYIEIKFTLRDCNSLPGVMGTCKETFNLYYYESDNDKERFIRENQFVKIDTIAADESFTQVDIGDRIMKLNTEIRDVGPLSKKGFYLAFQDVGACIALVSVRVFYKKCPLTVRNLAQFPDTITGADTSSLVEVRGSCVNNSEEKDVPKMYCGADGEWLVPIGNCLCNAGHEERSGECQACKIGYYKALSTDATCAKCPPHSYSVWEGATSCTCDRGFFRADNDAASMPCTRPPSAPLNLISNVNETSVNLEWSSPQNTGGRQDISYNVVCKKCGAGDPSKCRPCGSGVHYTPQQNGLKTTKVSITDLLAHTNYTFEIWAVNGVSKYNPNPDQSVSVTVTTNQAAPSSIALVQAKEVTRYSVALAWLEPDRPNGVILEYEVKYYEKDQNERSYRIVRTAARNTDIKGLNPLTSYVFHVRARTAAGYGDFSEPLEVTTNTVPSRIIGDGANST
Experiment: SPR
Schema: pKd number; meaning minus log10 of the concentration expressed in molar units.

Nb 31 (VHH, biotin on primary amines (EZ link NHS biotin) in the Eph receptor selectivity AlphaScreen only) VHH: QVQLQESGGGLVQAGGSLRLSCAASGFASDAYAIGWFRQAPGTKREMIAAVTKAGATNYANPVKGRFTISRDDAKNMVYLQMNNLKPEDSAVYYCNAISPLWDEYDFWGPGTQVTVSS : 6.76

Below: the item to evaluate.
Note to self: pKd recorded for Nb 22 (VHH, biotin on primary amines (EZ link NHS biotin) in the Eph receptor selectivity AlphaScreen only) VHH: QVQLQESGGGPVRAGESLRLSCTASGRAFSTYTMGWFRQAPGKERELVAVITPGGNTNYADSVKGRFTISRDDAKNTVYLQMNSLKPVDTAVYYCHVVLAVVGTGNEYDVWGQGTQVTVSS was 7.33
